biological target: human 5-HT2A receptor (Homo sapiens (Human), UniProt P28223); experiment: Test 3: antagonist activity for human 5-HT2A receptor (aequorin luminescence, CHO-K1 cells); type: cell-based; conditions: CHO-K1 cells, 1 nmol/L 5-HT
Sequence (P28223 whole entry): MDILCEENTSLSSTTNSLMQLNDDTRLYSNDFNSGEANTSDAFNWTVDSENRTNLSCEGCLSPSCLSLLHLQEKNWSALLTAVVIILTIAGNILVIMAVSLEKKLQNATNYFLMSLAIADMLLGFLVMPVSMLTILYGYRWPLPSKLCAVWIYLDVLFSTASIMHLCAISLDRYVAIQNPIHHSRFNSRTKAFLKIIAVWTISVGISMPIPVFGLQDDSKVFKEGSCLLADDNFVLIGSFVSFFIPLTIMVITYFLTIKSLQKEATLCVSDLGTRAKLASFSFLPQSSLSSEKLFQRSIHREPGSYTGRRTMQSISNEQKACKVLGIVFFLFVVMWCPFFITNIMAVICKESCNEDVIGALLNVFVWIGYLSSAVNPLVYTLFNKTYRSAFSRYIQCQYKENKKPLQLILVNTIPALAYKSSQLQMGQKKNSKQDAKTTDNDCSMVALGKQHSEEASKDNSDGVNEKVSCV
In this section we review reported pIC50 values for a set of compounds.
Please keep in mind that pIC50 is minus log10 of the molar concentration; only the number is needed.

Check out these entries, answers already filled in.
>>> print(df.to_string())
                                   compound  number
0  Cc1cc2ccn(CCN3CCN(c4noc5ccccc45)CC3)c(=O)c2cn1    8.06
1  CCc1nc2c(o1)C(=O)N(CCN1CCC(c3noc4ccccc34)CC1)CC2    7.14
2  Cn1ncc2c1CCCC(CCN1CCN(c3nsc4ccccc34)CC1)C2=O (stereo not shown)    8.57
3  Cn1ncc2c1CCCC(CCN1CCC(c3noc4ccccc34)CC1)C2=O (stereo not shown)    7.37
4  O=C1c2cnc(OC3COC3)cc2CCN1CCN1CCN(c2nsc3ccccc23)CC1    7.77

Challenge: // lookup pIC50 for Cc1nc2c(o1)C(=O)N(CCN1CCN(c3nsc4ccccc34)CC1)CC2
Response given: 7.57

Challenge: Another compound to look at: O=C1c2ncccc2CCN1CCN1CCN(c2noc3ccccc23)CC1
Response given: 7.35

----------
target: human 5-HT1A receptor (Homo sapiens (Human), UniProt P08908); test: Test 2: agonist activity for human 5-HT1A receptor ([35S]GTPγS binding); conditions: [35S]GTPγS binding; concentration at which half the activity of Emax was obtained
Sequence (P08908 whole entry): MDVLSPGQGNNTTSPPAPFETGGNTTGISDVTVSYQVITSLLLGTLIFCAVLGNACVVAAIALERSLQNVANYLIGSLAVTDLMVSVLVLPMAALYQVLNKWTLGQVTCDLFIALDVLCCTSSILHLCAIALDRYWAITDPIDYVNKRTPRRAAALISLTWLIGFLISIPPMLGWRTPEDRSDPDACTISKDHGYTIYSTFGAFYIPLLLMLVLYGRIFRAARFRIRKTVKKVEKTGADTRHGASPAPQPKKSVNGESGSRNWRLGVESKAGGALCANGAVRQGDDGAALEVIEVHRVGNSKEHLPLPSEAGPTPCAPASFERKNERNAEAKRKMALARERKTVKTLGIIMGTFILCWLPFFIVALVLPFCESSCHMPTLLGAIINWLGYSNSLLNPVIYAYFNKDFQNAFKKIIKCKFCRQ
In this section we review reported pEC50 values for a set of molecules.
Please keep in mind that pEC50 is minus log10 of the molar concentration; only the number is needed.

Challenge: // lookup pEC50 for Cn1ncc2c1CCN(CCN1CCC(c3noc4ccccc34)CC1)C2=O
Response given: 6.08

Challenge: Another molecule to look at: O=C1c2cnc(Br)cc2CCN1CCN1CCN(c2nsc3ccccc23)CC1
Response given: 9.00

Challenge: Another molecule to look at: Cc1ncc2c(=O)n(CCN3CCN(c4noc5ccccc45)CC3)ccc2n1
Response given: 6.12

Challenge: Another molecule to look at: CC(C)c1ncc2c(=O)n(CCN3CCN(c4nsc5ccccc45)CC3)ccc2n1
Response given: 7.10

Challenge: Another molecule to look at: Cn1cnc2c1C(=O)N(CCN1CCC(c3noc4ccccc34)CC1)CC2
Response given: 6.54

----------
In this section we review reported pKi values for a set of compounds.
molecular target: human D2 receptor (Homo sapiens (Human), UniProt P14416); experiment: Test 1: binding activity for human D2 receptor ([3H]Spiperone, CHO cell membrane fraction); details: human D2 receptor, [3H]Spiperone
Sequence (P14416 whole entry): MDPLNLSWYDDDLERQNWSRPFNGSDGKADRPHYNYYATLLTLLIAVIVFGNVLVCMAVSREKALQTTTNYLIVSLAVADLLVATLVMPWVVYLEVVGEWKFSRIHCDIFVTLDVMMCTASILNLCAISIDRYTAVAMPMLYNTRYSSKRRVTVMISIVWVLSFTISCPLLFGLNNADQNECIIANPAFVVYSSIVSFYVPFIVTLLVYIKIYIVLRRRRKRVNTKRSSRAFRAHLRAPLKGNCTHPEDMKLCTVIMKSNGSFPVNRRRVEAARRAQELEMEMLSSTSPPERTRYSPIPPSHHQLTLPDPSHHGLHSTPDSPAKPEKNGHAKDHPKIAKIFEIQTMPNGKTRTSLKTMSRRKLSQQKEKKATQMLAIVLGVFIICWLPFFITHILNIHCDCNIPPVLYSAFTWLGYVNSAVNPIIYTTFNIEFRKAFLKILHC
Please keep in mind that pKi is minus log10 of the molar concentration; only the number is needed.

Check out these entries, answers already filled in.
In [3]: df
Out[3]:
                                   compound  number
0  O=c1c2ncccc2ccn1CCN1CCN(c2noc3ccccc23)CC1    5.76
1  O=C1c2sccc2CCN1CCN1CCC(c2noc3ccccc23)CC1    7.03
2  O=C1c2c(Br)nn(Br)c2CCN1CCN1CCN(c2nsc3ccccc23)CC1    6.44

Challenge: // lookup pKi for O=C1c2ncccc2CCC1CCN1CCN(c2noc3cc(F)ccc23)CC1 (stereo not drawn)
Response given: 6.40

Challenge: Another compound to look at: COc1cc2c(cn1)C(=O)N(CCN1CCN(c3noc4ccccc34)CC1)CC2
Response given: 5.72
